// reported apparent KD of MS2 coat protein for each item listed
tested on: MS2 coat protein; experiment: apparent KD of MS2 coat protein; designed switch direction (-1 OFF switch, 1 ON switch): 1; higher = weaker reporter binding; settings: input ligand: microRNA oligo, concentration not stated

- SEQUENCE_CODE: "AUGAAGAAUUAAGGAUAUUGAUUACAUAUGUUUAACAUGAGGAUCACCCAUGUGGGUUGCGGUAUCGAGAAGGUAAAUUAAUAG [Mat - same State NG 2 - JL mod - D84] (Eterna round: R96, puzzle: Same State NG 2)"
  apparent KD of MS2 coat protein: "129 nM"
- SEQUENCE_CODE: "AACUGUUUCUGAGGAUAUCAGUAGUAUGCCAAUUGAGAAGGCAGUACAUGAGGAUCACCCAUGUUGUGGUUUGAUAGAAUGAUA [JR_SSNG1_Sub003] (Eterna round: R96, puzzle: Same State NG 1)"
  apparent KD of MS2 coat protein: "133 nM"
- SEQUENCE_CODE: "UUACUCAUGUAAGGAUAUGCAGCCGAAACGGCUGCAGAAGGUACUAUAAUACAUGAGGAUCACCCAUGUCUUUUUAAUUUAGAC [Mat - Same State NG 1 - JL mod - D82] (Eterna round: R96, puzzle: Same State NG 1)"
  apparent KD of MS2 coat protein: "37 nM"
- SEQUENCE_CODE: "GCUAGUAAAAUUGUCAACAUGAGGAUCACCCAUGUAUGUUGGCAGGAUAUCGUUUGCAAAGCAAACGAGAAGGGCUAAACUAGC [Mat - Same State NG 3 - JL Mod - D12] (Eterna round: R96, puzzle: Same State NG 3)"
  apparent KD of MS2 coat protein: "186 nM"

====

system: K4 kissing-loop RNA reporter; experiment: apparent KD of K4 kissing-loop reporter; higher = weaker reporter binding; conditions: Eterna round: R107; input ligand: FMN 200 uM;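 also: bound reporter read as fluorescence of individual clusters on recovered sequencing chips by microscopy, with normalized cluster intensities fitted with a binding model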

- SEQUENCE_CODE: "AAGUUUUAUAAACUCAUGGUUUCGUCAGAUACCAGCCUCGAGAGAGGCCCUUGGCAGCUGCAUGAGUGAUGUUCAUGUUCGAAGA [KL_XTheoA8]"
  apparent KD of K4 kissing-loop reporter / nM: 253
- SEQUENCE_CODE: "AGUGUGCAAAAGCACACUCAGUACAAGGACAAGGAUAUCUACUAAUAGAGAAGGUGUCCUUUCCUUAGUGAUGUUAAGGAGCUGA [Omei KL FMN A SS D v2]"
  apparent KD of K4 kissing-loop reporter / nM: 177
- SEQUENCE_CODE: "AUGCGACGUGCGGCCGCCACUCGGAUGCGAGUGAUGUUCGCGGGACGGACGCAAGUCCGUCAUUCGAGGACCGGGCAUCGGUGUA [#2 Same State - Tryptophan B Attempt #2 (HarryS)]"
  apparent KD of K4 kissing-loop reporter / nM: 555
- SEQUENCE_CODE: "GCAAAGGCCCAUCGGAAUUCGAGACCAGCACGAGGACCGGUACGGCCGCCACUCGUGCAGUGAUGUUGCACGAAUGGGAAACCGC [Oninanso]"
  apparent KD of K4 kissing-loop reporter / nM: 112
- SEQUENCE_CODE: "UAAUCCUAAUGAUAAUAAUCAAGUGGUGGACGAGGACCGGUACGGCCGCCACUCGAAAAUGCAGUGAUGUUGUAAUACGGAUAAU [Exclusion - Tryptophan A (Freestyle 3)]"
  apparent KD of K4 kissing-loop reporter / nM: 288
- SEQUENCE_CODE: "AAUAUAGUGAUGUUAUAUAAGAAGGAGUUACGAGGACCGGUACGGCCGCCACUCGAAACGAGUGAAGAAGGAGGAAGGAGGAGGA [SSTRyptA.A]"
  apparent KD of K4 kissing-loop reporter / nM: 479
- SEQUENCE_CODE: "AAGAGCUAGGCGGCCGCCACUAGAUGUGAACACAUACAAACCAGUGAUGUUGGUAUGAUGGACAGUAGGACCGGGCCUAGCUGAA [Exclusion - Tryptophan B (Freestyle 10)]"
  apparent KD of K4 kissing-loop reporter / nM: 998
- SEQUENCE_CODE: "UGUACCGAGUCAGGAUAUGAACGACUGACAAAAGUCGGUCGAAUAUCCAGUGAUGUUGGAAAUAAAUCAGAAGGGACUUGGUACU [FmnBS 15 #SwitchBubble #StaticStem]"
  apparent KD of K4 kissing-loop reporter / nM: 130
- SEQUENCE_CODE: "AAAUUUAAUAUAUUUAAAUAAAUAUGUGAUACCAGACAUUUAUAAGUCCCUUGGCAGCACAAUGCAGUGAUGUUGCUUAUAAUAA [JR_SSTheophyA_Sub017]"
  apparent KD of K4 kissing-loop reporter / nM: 85.6
- SEQUENCE_CODE: "AGGCACGAGCAAGGAUAUCGAGUGGAGUGAUGUUCUGCCGACCCAGGACCGCAAGGUCCUGGGUCGCGAGAAGGUGCUCGUGCCU [#2 Same State - FMN A Attempt #5 (HarryS)]"
  apparent KD of K4 kissing-loop reporter / nM: 254
- SEQUENCE_CODE: "AGAUGGAAUAGAAGGAGCGGCGCCAGUGAUGUUGGAUGCCGCGGGUGAAUCAUGUCAUAGUGCCAGGUAGGUCGCUAUUUCAGCU [Beinveve]"
  apparent KD of K4 kissing-loop reporter / nM: 104

====

// reported apparent KD of MS2 coat protein for each item listed
tested on: MS2 coat protein; experiment: apparent KD of MS2 coat protein, switch OFF state (with FMN for OFF switches, without FMN for ON switches); designed switch direction (-1 OFF switch, 1 ON switch): 1; higher = weaker reporter binding; settings: FMN input: 0 or 200 uM; Eterna round: R93 (includes R88 designs)
READOUT: apparent KD of MS2 coat protein (nM)

- SEQUENCE_CODE: "AUAUAAAUAAGCUAGGAUAUACUAAAGUAAACAUGAGGAUCACCCAUGUGAAGAAAGAAACUCAUGUAGAAGGAGCAUAUAUAUA [viburnum 3]"
  READOUT_VALUE: 185
- SEQUENCE_CODE: "AUGGUCAAGUGUGAGGAUAUCCAGGCUCCCACAUGAGGAUCACCCAUGUCUUAAAGGGCGUAAAGGGAGAAGGUACGAACGCCAC [Diatenat]"
  READOUT_VALUE: 46.8
- SEQUENCE_CODE: "AGGAAACAUGAGGAUCACCCAUGUAAAAAUAUGGGAGGAUAUACGAAAAAAAAAAAAAAAGUAGAAGGCCUAAAAG [Garnet 10]"
  READOUT_VALUE: 231
- SEQUENCE_CODE: "GAAAAACAUGAGGAUCACCCAUGUAGAAAUAUGGGAGGAUAUACGAAGACGAAAGUCGAAGUAGAAGGCCUAAAAG [Mat - Same State 1 - Eli mod - D24]"
  READOUT_VALUE: 84.9
- SEQUENCE_CODE: "AACUAACAUGAGGAUCACCCAUGUUACAGCAGUUGAGGAUAUGUGGGUGAAAAUAGCACGGCAGAAGGCGAGUGUA [SameState1 Malc#23]"
  READOUT_VALUE: 150
- SEQUENCE_CODE: "GCAGGGCCGUACUAGGAUAUGGGUGUAAAGACAUGAGGAUCACCCAUGUGAUGGCAAAACAAAGCUCAGAAGGAGUCGCGGCCCA [Cemavebi]"
  READOUT_VALUE: 129
- SEQUENCE_CODE: "AACAAUCUAUCUGAGGAUAUGUGUCGAAAGACAUGAGGAUCACCCAUGUGAAAACAUGGAAAAACACAGAAGGCAGAUAGAUUGA [SS2: 1150]"
  READOUT_VALUE: 202
- SEQUENCE_CODE: "CCCAUACAUGAGGAUCACCCAUGUUUUAUUAACAGAGGAUAUAUAGGUGAAACAAACAACAUAGAAGGCUGCCCAA [Default title]"
  READOUT_VALUE: 53.2
- SEQUENCE_CODE: "UAAUAAUAAACCAAGGAUAUGGAGUAUAGAACAUGAGGAUCACCCAUGUGUAGCGUGGAAUAGUACCAGAAGGUGGAGUGAAAUG [JR_SS002_Sub1002]"
  READOUT_VALUE: 49.8
- SEQUENCE_CODE: "CUGAGGAAGAGAGAGGAUAUCCAAAGGAAAACAUGAGGAUCACCCAUGUAAAAGGUAGGAAAUUGGGAGAAGGCUCAAGAGAGAG [salish99-ss2-068]"
  READOUT_VALUE: 34.3
- SEQUENCE_CODE: "AAAAAACAUGAGGAUCACCCAUGUGCAAAAUUCGCAGGAUAUUCCUCAAUUAAAUGAGAGGAAGAAGGGUGAAAAA [Nob's Hobby 26 - Jieux - Same State 1]"
  READOUT_VALUE: 171
- SEQUENCE_CODE: "AGAAAUAAAAGACAGGAUAUCCAAAAGAAAACAUGAGGAUCACCCAUGUAAAGAAAAUAAAAAUGGGAGAAGGGUCAAAUAAAAA [Mat - Same State 2 - JL mod - D49]"
  READOUT_VALUE: 33.9
